The measurements presented in this section are drawn from patent US8404708B2.

Biological target: Recombinant human NK3 (hNK3) receptor (Homo sapiens, UniProt P29371)
Construct: expressed in transfected cells
Sequence (P29371 whole entry): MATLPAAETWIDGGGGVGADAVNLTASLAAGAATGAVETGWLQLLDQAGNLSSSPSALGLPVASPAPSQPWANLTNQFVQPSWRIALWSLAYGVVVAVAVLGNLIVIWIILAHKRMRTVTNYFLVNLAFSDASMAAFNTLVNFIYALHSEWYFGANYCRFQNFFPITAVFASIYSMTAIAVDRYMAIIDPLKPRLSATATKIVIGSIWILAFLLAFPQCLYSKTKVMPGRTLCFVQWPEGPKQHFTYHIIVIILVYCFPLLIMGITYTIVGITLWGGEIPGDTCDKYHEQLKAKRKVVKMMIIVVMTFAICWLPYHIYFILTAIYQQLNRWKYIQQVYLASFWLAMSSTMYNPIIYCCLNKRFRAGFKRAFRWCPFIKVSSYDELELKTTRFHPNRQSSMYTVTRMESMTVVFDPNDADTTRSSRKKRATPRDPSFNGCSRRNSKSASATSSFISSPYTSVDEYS
Assay: NK3 receptor binding, [3H]SR142801 displacement, membrane preparations
Conditions: second value of the cell pKi NK1/NK3; hNK3 receptor, [3H]SR142801

{"molecule": "Cc1cc(F)ccc1-c1cc(N2CCS(=O)(=O)CC2CO)ncc1N(C)C(=O)C(C)(C)c1cc(C(F)(F)F)cc(C(F)(F)F)c1 (racemic) [Example 177]", "Ki": "2.63 nM"}
{"molecule": "C[C@@H](O)[C@@H](CO)Nc1cc(-c2ccccc2Cl)c(N(C)C(=O)C(C)(C)c2cc(C(F)(F)F)cc(C(F)(F)F)c2)cn1 [Example 144]", "Ki": "1.2 nM"}
{"molecule": "Cc1ccccc1-c1cc(N2CCC[C@H]2CO)ncc1N(C)C(=O)C(C)(C)c1cc(Cl)cc(Cl)c1 [Example 11]", "Ki": "1.1 nM"}
{"molecule": "CN(C(=O)C(C)(C)c1cc(C(F)(F)F)cc(C(F)(F)F)c1)c1cnc(NCCO)cc1-c1ccc(F)cc1Cl [Example 69]", "Ki": "14.5 nM"}
{"molecule": "Cc1ccc(F)cc1-c1cc(N2CCC[C@H]2CO)ncc1N(C)C(=O)C(C)(C)c1cc(C(F)(F)F)cc(C(F)(F)F)c1 [Example 166]", "Ki": "1.2 nM"}
{"molecule": "CN(C(=O)C(C)(C)c1cc(C(F)(F)F)cc(C(F)(F)F)c1)c1cnc(N2CCC(CO)CC2)cc1-c1ccccc1Cl [Example 52]", "Ki": "7.94 nM"}
{"molecule": "CN(C(=O)C(C)(C)c1cc(C(F)(F)F)cc(C(F)(F)F)c1)c1cnc(NCCS(C)(=O)=O)cc1-c1ccccc1Cl [Example 89]", "Ki": "3.24 nM"}
{"molecule": "Cc1cc(F)ccc1-c1cc(N2CC[C@H](O)[C@H]2CO)ncc1N(C)C(=O)C(C)(C)c1cc(C(F)(F)F)cc(C(F)(F)F)c1 [Example 155]", "Ki": "0.871 nM"}
{"molecule": "CN(C(=O)C(C)(C)c1cc(C(F)(F)F)cc(C(F)(F)F)c1)c1cnc(N[C@H]2CC[C@H](O)CC2)cc1-c1ccccc1Br [Example 132]", "Ki": "7.24 nM"}
{"molecule": "CN(C(=O)C(C)(C)c1cc(Cl)cc(OC(F)F)c1)c1cnc(N2C[C@H](O)C[C@H]2CO)cc1-c1ccccc1Cl [Example 35]", "Ki": "0.55 nM"}
{"molecule": "CCN(CCO)c1cc(-c2ccccc2Cl)c(N(C)C(=O)C(C)(C)c2cc(C(F)(F)F)cc(C(F)(F)F)c2)cn1 [Example 55]", "Ki": "11.2 nM"}
{"molecule": "Cc1cc(F)ccc1-c1cc(N2CC=C[C@H]2CO)ncc1N(C)C(=O)C(C)(C)c1cc(C(F)(F)F)cc(C(F)(F)F)c1 [Example 157]", "Ki": "1.58 nM"}
{"molecule": "CN(C(=O)C(C)(C)c1cc(C(F)(F)F)cc(C(F)(F)F)c1)c1cnc(N2C[C@@H](O)[C@H](O)C2)cc1-c1ccccc1Cl [Example 49]", "Ki": "14.8 nM"}
